Target: Bile acid receptor (Homo sapiens) (UniProt Q96RI1)
Sequence (Q96RI1 whole entry, the tested form may be a part): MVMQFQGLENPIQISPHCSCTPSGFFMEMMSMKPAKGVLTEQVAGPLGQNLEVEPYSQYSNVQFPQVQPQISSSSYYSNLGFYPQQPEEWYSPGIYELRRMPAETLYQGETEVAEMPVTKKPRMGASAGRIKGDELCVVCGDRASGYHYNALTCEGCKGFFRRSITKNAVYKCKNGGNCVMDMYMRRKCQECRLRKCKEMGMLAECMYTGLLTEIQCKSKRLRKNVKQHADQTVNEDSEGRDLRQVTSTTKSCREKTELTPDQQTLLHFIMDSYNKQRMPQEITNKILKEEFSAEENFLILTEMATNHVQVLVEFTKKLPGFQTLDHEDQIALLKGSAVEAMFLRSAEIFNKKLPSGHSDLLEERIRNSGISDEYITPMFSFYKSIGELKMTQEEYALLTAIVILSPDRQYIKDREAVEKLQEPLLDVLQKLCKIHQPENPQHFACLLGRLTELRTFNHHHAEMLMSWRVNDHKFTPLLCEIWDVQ
Test: Activation of human FXR LBD expressed in HEK293T cells assessed as induction of receptor activation at 1 uM incubated for 12 to 14 hrs by luciferase reporter gene assay relative to GW4064
Assay type: cell-based
Conditions: HEK-293T
measurement-label: %max

CC(C)c1onc(-c2ccccc2Cl)c1COc1ccc(COc2ccc(CC(=O)O)cc2)cc1	9%
CC(C)c1onc(-c2ccccc2Cl)c1COc1ccc(CCCC(=O)O)cc1	16%
CC(C)c1onc(-c2ccccc2)c1COc1ccc(CCCC(=O)O)cc1	11%
CC(C)c1onc(-c2ccccc2)c1COc1ccc(Oc2ccc(C(=O)O)cc2)cc1	13%
CC(C)c1onc(-c2c(Cl)cccc2Cl)c1COc1ccc(CNc2ccc(CC(=O)O)cc2)cc1	29%
Cc1cc(NCc2ccc(OCc3c(-c4c(Cl)cccc4Cl)noc3C(C)C)cc2)ccc1CC(=O)O	37%
CC(C)c1onc(-c2c(Cl)cccc2Cl)c1COc1ccc(CCCC(=O)O)cc1	51%
